- experimental.system: T1, Human BCMA (human, UniProt Q02223 1-54, limits assumed)
- T1 construct: Soluble analyte in SPR; construct not described; also called huBCMA; B-cell maturation antigen
- T1 sequence (looked up): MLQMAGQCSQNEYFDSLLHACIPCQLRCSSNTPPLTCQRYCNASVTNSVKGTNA
- measurement.protocol: SPR, IgG immobilised, 25 C
readout.kind: pKd
FYI, pKd means -log10 of a concentration in mol per litre.

L1.LGF/L3.KW/H3.AP (antibody, V domains shown, IgG) VH: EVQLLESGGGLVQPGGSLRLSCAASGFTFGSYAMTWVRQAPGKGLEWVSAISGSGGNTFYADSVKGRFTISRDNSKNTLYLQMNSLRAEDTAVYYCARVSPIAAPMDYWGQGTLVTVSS VL: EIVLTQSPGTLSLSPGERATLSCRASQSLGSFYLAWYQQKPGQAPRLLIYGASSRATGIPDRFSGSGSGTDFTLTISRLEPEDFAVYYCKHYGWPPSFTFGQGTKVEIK    8.61

Would you kindly share the measured pKd for L1.GDF/L3.PY/H3.AQ (antibody, V domains shown, IgG) VH: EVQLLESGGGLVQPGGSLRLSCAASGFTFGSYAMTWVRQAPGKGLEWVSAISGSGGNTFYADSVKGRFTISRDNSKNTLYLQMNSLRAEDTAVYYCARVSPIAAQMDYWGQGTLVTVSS VL: EIVLTQSPGTLSLSPGERATLSCRASQSVGDFYLAWYQQKPGQAPRLLIYGASSRATGIPDRFSGSGSGTDFTLTISRLEPEDFAVYYCQHYPYPPSFTFGQGTKVEIK ?
8.02

Try this binder next: L1.LGF/L3.PY/H3.AP (antibody, V domains shown, IgG) VH: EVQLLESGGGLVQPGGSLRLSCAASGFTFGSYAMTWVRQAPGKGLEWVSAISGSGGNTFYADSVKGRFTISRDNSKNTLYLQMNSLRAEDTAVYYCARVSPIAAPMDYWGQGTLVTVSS VL: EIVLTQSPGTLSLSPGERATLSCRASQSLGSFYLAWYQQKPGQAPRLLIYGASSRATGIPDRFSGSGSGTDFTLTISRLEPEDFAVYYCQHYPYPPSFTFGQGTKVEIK
8.67

Now this one: L1.GDF/L3.NY/H3.AP (antibody, V domains shown, IgG) VH: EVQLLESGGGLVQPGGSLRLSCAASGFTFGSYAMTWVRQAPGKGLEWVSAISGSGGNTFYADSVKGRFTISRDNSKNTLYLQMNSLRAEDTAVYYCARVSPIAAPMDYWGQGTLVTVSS VL: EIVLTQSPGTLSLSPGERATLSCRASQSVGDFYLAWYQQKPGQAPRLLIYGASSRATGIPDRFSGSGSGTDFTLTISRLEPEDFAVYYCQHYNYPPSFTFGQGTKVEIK
9.00
